Reference for the values: paper PMC12416549

Target: T1, TNFR1 (Homo sapiens, UniProt P19438)
T1 chain: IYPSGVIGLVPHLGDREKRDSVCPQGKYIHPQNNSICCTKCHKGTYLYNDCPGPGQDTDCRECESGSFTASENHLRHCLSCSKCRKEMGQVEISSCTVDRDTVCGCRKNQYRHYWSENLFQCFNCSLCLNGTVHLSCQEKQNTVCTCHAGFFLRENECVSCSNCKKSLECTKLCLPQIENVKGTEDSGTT
Test: yeast display SC50
recorded endpoint: apparent Kd (screen) (nM)

Guide cases for apparent Kd (screen), answers given:
K35H (designed binder) MTLQELLREEALRRAEAEAFRYALELLAEKFPEQHEYLLDLAEEIESQIRSLSGVDVEDVRKFLDKEWAWVKELLAEHPAELAEVEAARAARLAELRAEVEAKVAA : 0.446
R21P (designed binder) MTLQELLREEALRRAEAEAFPYALELLAEKFPEQKEYLLDLAEEIESQIRSLSGVDVEDVRKFLDKEWAWVKELLAEHPAELAEVEAARAARLAELRAEVEAKVAA : 0.49

A = E86D (designed binder) MTLQELLREEALRRAEAEAFRYALELLAEKFPEQKEYLLDLAEEIESQIRSLSGVDVEDVRKFLDKEWAWVKELLAEHPAELAEVDAARAARLAELRAEVEAKVAA
B = A80K (designed binder) MTLQELLREEALRRAEAEAFRYALELLAEKFPEQKEYLLDLAEEIESQIRSLSGVDVEDVRKFLDKEWAWVKELLAEHPKELAEVEAARAARLAELRAEVEAKVAA
Please compare: A and B . Report which one has the smaller apparent Kd (screen) value. Answer by quoting the chosen item's label. A
